System: Jump-In T-REx CHO-K1 BLA cells
Assay: cells
Type: cell-based
Conditions: 0% FBS 4Hr; read-out: TETCHO: Counterscreen EC50
Experimental: This assay was based on Jump-In™ T-REx™ CHO-K1 BLA cells containing a stably integrated β-lactamase under the control of an inducible cytomegalovirus (CMV) promoter. […] The final working concentration of DMSO was 0.5%. β-lactamase activity was detected using the ToxBLAzer Dual Screen (Invitrogen), as per the manufacturer’s instructions. Measurements were carried out using the Envision multiplate reader (Perkin–Elmer). […]
readout.label: EC50 (µM)
Enter your answer as a number in µM; do not include the unit.

molecule	quantity.unit	test.result
CC(=O)N[C@H](C(=O)N[C@@H](CO)C(=O)NC(C)(Cc1ccccc1)C(=O)N[C@]1(C)CCCCCCC=CCCC[C@@](C)(C(N)=O)NC(=O)[C@H](CC(C)C)NC(=O)[C@H](CC(C)C)NC(=O)[C@H](C)NC(=O)[C@H](Cc2c[nH]c3ccccc23)NC(=O)[C@H](Cc2ccc(O)cc2)NC(=O)[C@H](CCC(=O)O)NC1=O)[C@@H](C)O (stereo partly drawn)	µM	30.1

// moving on: another record for EC50
# query: EC50 of entry CC(=O)N[C@@H](CCCCN)C(=O)NCCCCCC(=O)N[C@H](C(=O)N[C@@H](CO)C(=O)N[C@@H](Cc1ccccc1)C(=O)N[C@]1(C)CCCCCCC=CCCC[C@@](C)(C(=O)N[C@@H](CCC(=O)O)C(=O)N[C@@H](CC(N)=O)C(=O)N[C@@H](Cc2ccccc2)C(N)=O)NC(=O)[C@H](CC(C)C)NC(=O)[C@H](CC(C)C)NC(=O)[C@H](C)NC(=O)[C@H](Cc2c[nH]c3ccccc23)NC(=O)[C@H](Cc2ccc(O)cc2)NC(=O)[C@H](CCC(=O)O)NC1=O)[C@@H](C)O [MP-82094] 45.8

----------
// reported log10(solubility kinetic) per item
Assay: Solubility assay (kinetic solubility, PBS pH 7)
Type: physicochemical
Conditions: pH 7, aqueous buffer, kinetic from dmso stock, pH 7, PBS; read-out: Solubility
Positions of bridges follow the written chain, without caps; N, C: chain ends. Non-standard residues stand in square brackets, D forms with d. Residues, ends and D or L forms follow the SMILES beside them. Lys(N3) = [N-]=[N+]=NCCCC[C@H](N)C(=O)O; R8 = C=CCCCCCC[C@@](C)(N)C(=O)O; Cba = N[C@@H](CC1CCC1)C(=O)O; S5 = C=CCCC[C@](C)(N)C(=O)O; βAla = NCCC(=O)O
Heads up, the numbers here are log10 of solubility kinetic in µM units.

Previously resolved entries follow.
compound	test.result
CC(=O)N[C@@H](CCCCN=[N+]=[N-])C(=O)NCCC(=O)N[C@@H](CC(C)C)C(=O)N[C@H](C(=O)N[C@@H](Cc1ccccc1)C(=O)N[C@]1(C)CCCCCCC=CCCC[C@@](C)(C(=O)NCC(=O)NCC(=O)NCC(=O)NCC(=O)NCC(=O)NCC(N)=O)NC(=O)[C@H](CC2CCC2)NC(=O)[C@H](CCC(N)=O)NC(=O)[C@H](C)NC(=O)[C@H](Cc2c[nH]c3ccccc23)NC(=O)[C@H](Cc2ccc(O)cc2)NC(=O)[C@H](CCC(=O)O)NC1=O)[C@@H](C)O [MP-289] (Ac-[Lys(N3)][βAla]LTF[R8]EYWAQ[Cba][S5]GGGGGG-NH2; staple 6-13)	2.15
CC(=O)N[C@@H](CCCCN=[N+]=[N-])C(=O)NCCC(=O)N[C@@H](CC(C)C)C(=O)N[C@H](C(=O)N[C@@H](Cc1ccccc1)C(=O)N[C@]1(C)CCCCCCC=CCCC[C@@](C)(C(=O)NCC(=O)N[C@@H](C)C(=O)N[C@@H](C)C(N)=O)NC(=O)[C@H](CC2CCC2)NC(=O)[C@H](CCC(N)=O)NC(=O)[C@H](C)NC(=O)[C@H](Cc2c[nH]c3ccccc23)NC(=O)[C@H](Cc2ccc(O)cc2)NC(=O)[C@H](CCC(=O)O)NC1=O)[C@@H](C)O [MP-798] (Ac-[Lys(N3)][βAla]LTF[R8]EYWAQ[Cba][S5]GAA-NH2; staple 6-13)	1.90
CC(=O)N[C@@H](CCCCN=[N+]=[N-])C(=O)NCCC(=O)N[C@@H](CC(C)C)C(=O)N[C@H](C(=O)N[C@@H](C)C(=O)N[C@]1(C)CCCCCCC=CCCC[C@@](C)(C(=O)N[C@@H](CO)C(=O)N[C@@H](C)C(=O)N[C@@H](C)C(N)=O)NC(=O)[C@H](CC2CCC2)NC(=O)[C@H](CCC(N)=O)NC(=O)[C@H](C)NC(=O)[C@H](Cc2c[nH]c3ccccc23)NC(=O)[C@H](Cc2ccc(O)cc2)NC(=O)[C@H](CCC(=O)O)NC1=O)[C@@H](C)O [MP-892, AZIDE-ATSP-7041 (F3A)]	2.00
CC(=O)N[C@@H](CC(C)C)C(=O)N[C@H](C(=O)N[C@@H](Cc1ccccc1)C(=O)N[C@]1(C)CCCCCCC=CCCC[C@@](C)(C(=O)N[C@@H](CO)C(=O)N[C@@H](C)C(=O)N[C@@H](C)C(N)=O)NC(=O)[C@H](CC2CCC2)NC(=O)[C@H](CCC(N)=O)NC(=O)[C@H](CCC(N)=O)NC(=O)[C@H](Cc2c[nH]c3ccccc23)NC(=O)[C@H](Cc2ccc(O)cc2)NC(=O)[C@H](CCC(=O)O)NC1=O)[C@@H](C)O [MP-864] (Ac-LTF[R8]EYWQQ[Cba][S5]SAA-NH2; staple 4-11)	1.94
CC(=O)N[C@@H](CCCCN=[N+]=[N-])C(=O)NCCC(=O)N[C@@H](CC(C)C)C(=O)N[C@H](C(=O)N[C@@H](CC1CCC1)C(=O)N[C@]1(C)CCCCCCC=CCCC[C@@](C)(C(=O)N[C@@H](CO)C(=O)N[C@@H](C)C(=O)N[C@@H](C)C(N)=O)NC(=O)[C@H](Cc2c[nH]c3ccccc23)NC(=O)[C@H](CCC(N)=O)NC(=O)[C@H](C)NC(=O)[C@H](Cc2ccccc2)NC(=O)[C@H](Cc2ccc(O)cc2)NC(=O)[C@H](CCC(=O)O)NC1=O)[C@@H](C)O [MP-791] (Ac-[Lys(N3)][βAla]LT[Cba][R8]EYFAQW[S5]SAA-NH2; staple 6-13)	1.45

Item CC(C)C[C@H](NC(=O)CCNC(=O)[C@@H](N)CCCCN=[N+]=[N-])C(=O)N[C@H](C(=O)N[C@@H](Cc1ccccc1)C(=O)N[C@]1(C)CCCCCCC=CCCC[C@@](C)(C(N)=O)NC(=O)[C@H](CC2CCC2)NC(=O)[C@H](CC(C)C)NC(=O)[C@H](CCC(N)=O)NC(=O)[C@H](Cc2c[nH]c3ccccc23)NC(=O)[C@H](Cc2ccc(O)cc2)NC(=O)[C@H](CCC(=O)O)NC1=O)[C@@H](C)O [MP-329] (H-[Lys(N3)][βAla]LTF[R8]EYWQL[Cba][S5]-NH2; staple 6-13) has what recorded log10(solubility kinetic)? 0.70

log10(solubility kinetic) lookup needed for CC(=O)N[C@@H](CCCCN=[N+]=[N-])C(=O)NCCC(=O)N[C@@H](CC(C)C)C(=O)N(C)[C@H](C(=O)N[C@@H](Cc1ccccc1)C(=O)N[C@]1(C)CCCCCCC=CCCC[C@@](C)(C(=O)N[C@@H](CO)C(=O)N[C@@H](C)C(=O)N[C@@H](C)C(N)=O)NC(=O)[C@H](CC2CCC2)NC(=O)[C@H](CCC(N)=O)NC(=O)[C@H](C)NC(=O)[C@H](Cc2c[nH]c3ccccc23)NC(=O)[C@H](Cc2ccc(O)cc2)NC(=O)[C@H](CCC(=O)O)NC1=O)[C@@H](C)O [MP-190] , thanks. 2.06

# input compound: CC(=O)N[C@@H](CCCCN=[N+]=[N-])C(=O)NCCC(=O)N[C@@H](CC(C)C)C(=O)N[C@@H](CCCCN)C(=O)N[C@@H](Cc1ccccc1)C(=O)N[C@]1(C)CCCCCCC=CCCC[C@@](C)(C(=O)N[C@@H](CO)C(=O)N[C@@H](C)C(=O)N[C@@H](C)C(N)=O)NC(=O)[C@H](CC2CCC2)NC(=O)[C@H](CCC(N)=O)NC(=O)[C@H](C)NC(=O)[C@H](Cc2c[nH]c3ccccc23)NC(=O)[C@H](Cc2ccc(O)cc2)NC(=O)[C@H](CCC(=O)O)NC1=O [MP-547, AZIDE-ATSP-7041 (T2K)] ; wanted: its log10(solubility kinetic) 0.48

----------
Here the recorded LDH: Cytotoxicity assay % Effect is given for each entry.
Test system: HCT116 cells
Assay: Lactate dehydrogenase (LDH) release assay
Format: cell-based
Positions of bridges follow the written chain, without caps; N, C: chain ends. Non-standard residues stand in square brackets, D forms with d. Residues, ends and D or L forms follow the SMILES beside them. tBuAla = CC(C)(C)C[C@H](N)C(=O)O; R8 = C=CCCCCCC[C@@](C)(N)C(=O)O; Cba = N[C@@H](CC1CCC1)C(=O)O; S5 = C=CCCC[C@](C)(N)C(=O)O
Provide only the numeric value, understood in %.

compound	test.result
CC(=O)N[C@@H](CCCCN)C(=O)N[C@@H](CCCCN)C(=O)N[C@H](C(=O)N[C@@H](CO)C(=O)N[C@@H](Cc1ccccc1)C(=O)N[C@]1(C)CCCCCCC=CCCC[C@@](C)(C(N)=O)NC(=O)[C@H](CC(C)(C)C)NC(=O)[C@H](CC(C)C)NC(=O)[C@H](C)NC(=O)[C@H](Cc2c[nH]c3ccccc23)NC(=O)[C@H](Cc2ccc(O)cc2)NC(=O)[C@H](CCC(=O)O)NC1=O)[C@@H](C)O [MP-152] (Ac-KKTSF[R8]EYWAL[tBuAla][S5]-NH2; staple 6-13)	49.97

Now for a further compound.
I'm curious: which LDH: Cytotoxicity assay % Effect was measured for CC(=O)N[C@@H](CC(C)C)C(=O)N[C@H](C(=O)N[C@@H](Cc1ccccc1)C(=O)N[C@]1(C)CCCCCCC=CCCC[C@@](C)(C(=O)N[C@@H](CO)C(=O)N[C@@H](C)C(=O)N[C@@H](C)C(N)=O)NC(=O)[C@H](CC2CCC2)NC(=O)[C@H](CC(C)C)NC(=O)[C@H](CCCNC(=N)N)NC(=O)[C@H](Cc2c[nH]c3ccccc23)NC(=O)[C@H](Cc2ccc(O)cc2)NC(=O)[C@H](CCC(=O)O)NC1=O)[C@@H](C)O [MP-194] (Ac-LTF[R8]EYWRL[Cba][S5]SAA-NH2; staple 4-11) tested on HCT116 cells? -1.06
